Data provenance is patent US20250100977A1.

# Tested on: Reh
# protocol: Cytotoxicity in Reh
# Assay type: cell-based
# conditions_used: Table 2; 48 h; listed as SCR116; read-out: IC50 in cancer cell lines, Reh
experimental_endpoint: pIC50
Would you please state pIC50, meaning minus log10 of the concentration in mol/L, as a bare number?

Return reported pIC50; argument: Nc1nc(S)nc(O)c1/N=C/c1ccc([N+](=O)[O-])s1 [Compound 16]
5.63

====

# System: SUDHL8
# protocol: Cytotoxicity in SUDHL8
# Assay type: cell-based
# conditions_used: Homo sapiens, SU-DHL-8; Table 2; read-out: IC50 in cancer cell lines, SUDHL8
experimental_endpoint: IC50 (nM)
Answer with a number only, understood to be in nM.

>>> df
                                   compound  experimental_endpoint  measure_unit  value_reported
0  Nc1nc(S)nc(O)c1/N=C/c1sc(Cl)nc1Cl [Compound 32]                   IC50            nM             810

Here is another compound to look at.
Return reported IC50; argument: Nc1nc(S)nc(O)c1/N=C/c1ccc([N+](=O)[O-])s1 [Compound 16]
685
